The reported numbers originate from patent US10681909B2.

Attribute: pest or weed control at 500 g/ha
- Tested on: morningglory
- assay-name: Test A preemergence
- Assay type: in vivo, Ipomoea spp.
- particulars: Ipomoea, pre-emergence, 240 h, 500 g ai/ha, 0 to 100 scale (0 no effect, 100 complete control), approx. 10 d, read-out: Plant response rating, Morningglory
Answer with a number only, understood to be in %.

Solved entries (count: 3):
{"columns": ["molecule", "result-units", "reported-measurement"],
 "data": [
  ["Cn1nc(-c2ccc(F)cc2)nc1Oc1cccc(C(F)(F)F)c1", "%", 0],
  ["CCn1nc(-c2ccc(F)cc2)nc1C(O)c1ccnc(C(F)(F)F)c1 (stereo not shown)", "%", 0],
  ["Cn1nc(-c2ccc(F)cc2)nc1C(O)c1ccnc(C(F)(F)F)c1 (stereo not shown)", "%", 0]
]}

Proceed to the following item.
Asked: Name the recorded pest or weed control at 500 g/ha of the item `CCOc1nc(-c2ccc(F)cc2)nn1Cc1ccnc(C(F)(F)F)c1` in your answer.
Given back: 100

====

- Tested on: johnsongrass
- assay-name: Test C postemergence
- Type: in vivo, Sorghum halepense
- particulars: 31 g ai/ha
metric: Plant response rating (scale of 0 to 100 where 0 is no effect and 100 is complete control)
The answer should be a number; do not append a unit.

{"columns": ["item-smiles", "study-system", "reported-measurement"],
 "data": [
  ["COc1nc(-c2ccc(C(F)(F)F)cc2)nn1Cc1ccnc(C(F)(F)F)c1", "johnsongrass", 10]
]}

Asked: Name the recorded Plant response rating (scale of 0 to 100 where 0 is no effect and 100 is complete control) of the item `FC(F)(F)COc1nc(-c2ccccc2)nn1Cc1ccnc(C(F)(F)F)c1` in your answer.
Given back: 10

Asked: Name the recorded Plant response rating (scale of 0 to 100 where 0 is no effect and 100 is complete control) of the item `CCOc1nc(-c2ccc(C(F)(F)F)cc2)nn1Cc1ccnc(C(F)(F)F)c1` in your answer.
Given back: 75

====

Attribute: Plant response rating (scale of 0 to 100 where 0 is no effect and 100 is complete control)
- Test system: ragweed
- assay-name: Test C preemergence
- Format: in vivo, Ambrosia elatior
- particulars: Ragweed, preemergence, 250 g ai/ha
The answer should be a number; do not append a unit.

{"columns": ["compound", "study-system", "reported-measurement"],
 "data": [
  ["FC(F)(F)COc1nc(-c2ccccc2)nn1Cc1ccnc(C(F)(F)F)c1 [Compound 24]", "ragweed", 55],
  ["CCOc1nc(-c2ccc(F)cc2)nn1Cc1ccnc(C(F)(F)F)c1 [Compound 8]", "ragweed", 90],
  ["CCOc1nc(-c2ccccc2)nn1Cc1ccnc(C(F)(F)F)c1 [Compound 27]", "ragweed", 98]
]}

Proceed to the following item.
Asked: GET Plant response rating (scale of 0 to 100 where 0 is no effect and 100 is complete control) | system: ragweed | item: CCOc1nc(-c2ccc(C(F)(F)F)cc2)nn1Cc1ccnc(C(F)(F)F)c1 [Compound 35]
Given back: 90

====

- Test system: blackgrass
- assay-name: Test C preemergence
- Assay type: in vivo, Alopecurus myosuroides
- particulars: Preemergence, 31 g ai/ha, visual rating after 13 to 15 d
metric: Blackgrass plant response rating (0 to 100)
The answer should be a number; do not append a unit.

{"columns": ["item-smiles", "reported-measurement"],
 "data": [
  ["FC(F)(F)COc1nc(-c2ccc(Cl)cc2)nn1Cc1ccnc(C(F)(F)F)c1", 80],
  ["CCOc1nc(-c2ccc(C(F)(F)F)cc2)nn1Cc1ccnc(C(F)(F)F)c1", 90],
  ["COc1nc(-c2ccccc2)nn1Cc1ccnc(C(F)(F)F)c1", 0]
]}

Proceed to the following item.
Asked: Name the recorded Blackgrass plant response rating (0 to 100) of the item `COc1nc(-c2ccc(F)cc2)nn1Cc1ccnc(C(F)(F)F)c1` in your answer.
Given back: 5

====

- Tested on: blackgrass
- assay-name: Test C postemergence
- Assay type: in vivo, Alopecurus myosuroides
- particulars: 250 g ai/ha
Attribute: Plant response rating (scale of 0 to 100 where 0 is no effect and 100 is complete control)
The answer should be a number; do not append a unit.

Solved entries (count: 3):
{"columns": ["item-smiles", "reported-measurement"],
 "data": [
  ["CCOc1nc(-c2ccc(F)cc2)nn1Cc1ccnc(C(F)(F)F)c1", 75],
  ["Fc1ccc(-c2nc(OCC(F)(F)F)n(Cc3ccnc(C(F)(F)F)c3)n2)cc1", 60],
  ["CCCOc1nc(-c2ccccc2)nn1Cc1ccnc(C(F)(F)F)c1", 10]
]}

Proceed to the following item.
Asked: Name the recorded Plant response rating (scale of 0 to 100 where 0 is no effect and 100 is complete control) of the item `FC(F)(F)COc1nc(-c2ccccc2)nn1Cc1ccnc(C(F)(F)F)c1` in your answer.
Given back: 35

====

- Test system: wheat (winter wheat)
- assay-name: Test C postemergence
- Format: in vivo, Triticum aestivum
- particulars: 250 g ai/ha
Attribute: Plant response rating (scale of 0 to 100 where 0 is no effect and 100 is complete control)
The answer should be a number; do not append a unit.

Asked: Name the recorded Plant response rating (scale of 0 to 100 where 0 is no effect and 100 is complete control) of the item `Fc1ccc(-c2nc(OCC(F)(F)F)n(Cc3ccnc(C(F)(F)F)c3)n2)cc1` in your answer.
Given back: 20

Asked: Name the recorded Plant response rating (scale of 0 to 100 where 0 is no effect and 100 is complete control) of the item `COc1nc(-c2ccc(C(F)(F)F)cc2)nn1Cc1ccnc(C(F)(F)F)c1` in your answer.
Given back: 10

Asked: Name the recorded Plant response rating (scale of 0 to 100 where 0 is no effect and 100 is complete control) of the item `CCOc1nc(-c2ccccc2)nn1Cc1ccnc(C(F)(F)F)c1` in your answer.
Given back: 15

Asked: Name the recorded Plant response rating (scale of 0 to 100 where 0 is no effect and 100 is complete control) of the item `CCOc1nc(-c2ccc(F)cc2)nn1Cc1ccnc(C(F)(F)F)c1` in your answer.
Given back: 40

====

- System: chickweed
- assay-name: Test C postemergence
- Type: in vivo, Stellaria media
- particulars: 125 g ai/ha
- Text: […]
Classification field: enter criterion met for Plant response rating (scale of 0 to 100 where 0 is no effect and 100 is complete control) values not below 80, criterion not met for values below it.

{"columns": ["item-smiles", "answer-label"],
 "data": [
  ["FC(F)(F)COc1nc(-c2ccccc2)nn1Cc1ccnc(C(F)(F)F)c1", "criterion not met"],
  ["CCCc1nc(-c2ccc(F)cc2)nn1Cc1ccnc(C(F)(F)F)c1", "criterion met"],
  ["CCc1nc(-c2ccc(C(F)(F)F)cc2)nn1Cc1ccnc(C(F)(F)F)c1", "criterion met"],
  ["COc1nc(-c2ccc(C(F)(F)F)cc2)nn1Cc1ccnc(C(F)(F)F)c1", "criterion met"],
  ["CCCOc1nc(-c2ccccc2)nn1Cc1ccnc(C(F)(F)F)c1", "criterion not met"]
]}

// next entry
Asked: Could you please find out whether `COc1nc(-c2ccc(Cl)cc2)nn1Cc1ccnc(C(F)(F)F)c1` has Plant response rating (scale of 0 to 100 where 0 is no effect and 100 is complete control) that meets 80 or exceeds it?
Given back: criterion met

====

- System: chickweed
- assay-name: Test D preemergence
- Format: in vivo, Stellaria media
- particulars: 16 g ai/ha, 0 is no effect, 100 is complete control
metric: Plant response rating (0 to 100), Chickweed
The answer should be a number; do not append a unit.

Solved entries (count: 3):
{"columns": ["item-smiles", "reported-measurement"],
 "data": [
  ["COc1nc(-c2ccc(Cl)cc2)nn1Cc1ccnc(C(F)(F)F)c1", 65],
  ["FC(F)(F)COc1nc(-c2ccc(Cl)cc2)nn1Cc1ccnc(C(F)(F)F)c1", 80],
  ["FC(F)(F)COc1nc(-c2ccccc2)nn1Cc1ccnc(C(F)(F)F)c1", 55]
]}

Asked: Name the recorded Plant response rating (0 to 100), Chickweed of the item `CCOc1nc(-c2ccccc2)nn1Cc1ccnc(C(F)(F)F)c1` in your answer.
Given back: 85

====

- System: barnyardgrass
- assay-name: Test A postemergence
- Type: in vivo, Echinochloa crus-galli
- particulars: Echinochloa crus-galli, post-emergence, 240 h, 500 g ai/ha, 0 to 100 scale (0 no effect, 100 complete control), approx. 10 d, read-out: Plant response rating, Barnyardgrass
metric: pest or weed control at 500 g/ha

Solved entries (count: 3):
{"columns": ["molecule", "pest or weed control at 500 g/ha"],
 "data": [
  ["Cn1nc(-c2ccc(F)cc2)nc1Oc1cccc(C(F)(F)F)c1 [Compound 5]", "30%"],
  ["CCc1nc(-c2ccc(C(F)(F)F)cc2)nn1Cc1ccnc(C(F)(F)F)c1 [Compound 1]", "90%"],
  ["COc1nc(-c2ccc(F)cc2)nn1Cc1ccnc(C(F)(F)F)c1 [Compound 9]", "90%"]
]}

Proceed to the following item.
Asked: Name the recorded pest or weed control at 500 g/ha of the item CCn1nc(-c2ccc(F)cc2)nc1C(O)c1ccnc(C(F)(F)F)c1 (stereo not shown) [Compound 15] in your answer.
Given back: 10%
